Data provenance is patent EP1247803A2.

- Tgt: EGFR (Homo sapiens)
- Construct: Add 7 ug A431 cell lysate per well (EGFR source); endogenous in cells; host or cells: A431
- Sequence (P00533 25-1210): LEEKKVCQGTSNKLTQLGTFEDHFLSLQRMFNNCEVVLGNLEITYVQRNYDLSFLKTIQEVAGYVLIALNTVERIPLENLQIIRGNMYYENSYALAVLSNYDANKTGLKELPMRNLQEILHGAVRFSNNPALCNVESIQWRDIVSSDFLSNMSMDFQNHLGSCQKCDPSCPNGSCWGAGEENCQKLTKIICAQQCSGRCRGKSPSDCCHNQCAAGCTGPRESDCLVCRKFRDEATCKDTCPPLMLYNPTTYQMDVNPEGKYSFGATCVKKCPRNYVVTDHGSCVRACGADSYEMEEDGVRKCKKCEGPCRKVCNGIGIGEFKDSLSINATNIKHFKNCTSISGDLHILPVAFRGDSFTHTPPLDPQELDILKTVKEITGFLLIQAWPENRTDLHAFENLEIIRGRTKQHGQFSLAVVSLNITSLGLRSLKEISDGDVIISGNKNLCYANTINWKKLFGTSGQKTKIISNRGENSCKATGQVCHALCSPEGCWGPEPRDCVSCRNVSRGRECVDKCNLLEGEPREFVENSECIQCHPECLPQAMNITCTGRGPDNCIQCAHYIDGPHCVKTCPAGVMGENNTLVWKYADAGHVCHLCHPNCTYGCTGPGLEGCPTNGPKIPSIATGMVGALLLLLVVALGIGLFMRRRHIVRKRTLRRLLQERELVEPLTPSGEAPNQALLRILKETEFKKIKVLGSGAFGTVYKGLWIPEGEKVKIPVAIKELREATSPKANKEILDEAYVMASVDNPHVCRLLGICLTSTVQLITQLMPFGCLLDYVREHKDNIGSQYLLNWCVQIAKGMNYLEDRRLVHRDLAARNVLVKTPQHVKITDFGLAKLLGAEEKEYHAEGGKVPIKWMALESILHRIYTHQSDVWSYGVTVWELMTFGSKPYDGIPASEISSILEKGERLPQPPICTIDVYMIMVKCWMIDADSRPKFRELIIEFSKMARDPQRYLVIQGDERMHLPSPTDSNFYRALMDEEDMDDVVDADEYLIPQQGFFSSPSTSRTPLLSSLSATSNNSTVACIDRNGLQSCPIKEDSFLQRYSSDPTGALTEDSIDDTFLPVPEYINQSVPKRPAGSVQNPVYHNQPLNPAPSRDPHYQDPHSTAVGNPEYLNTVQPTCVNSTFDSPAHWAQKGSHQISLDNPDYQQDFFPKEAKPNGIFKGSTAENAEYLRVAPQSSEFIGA
- Protocol notes: EGFR ELISA assay (in vitro kinase activity, EGFR captured from A431 cell lysate)
- Type: biochemical
- Set-up: concentration or dose not given beside the values
Measured attribute: Biochem EGFR %Inhibition (%)
Report the figure in % without appending any unit label.

INPUT: Provide one value: measured Biochem EGFR %Inhibition of O=C1Nc2ccccc2C1=C1C(=O)Nc2ccc(CCCl)cc21
OUTPUT: 3.3

INPUT: Provide one value: measured Biochem EGFR %Inhibition of O=C1Nc2ccc(CCCl)cc2C1=Cc1ccc2ccccc2c1O
OUTPUT: 15.8

INPUT: Provide one value: measured Biochem EGFR %Inhibition of O=C1Nc2ccc(S(=O)(=O)Nc3ccc(C(F)(F)F)cc3)cc2C1=Cc1c[nH]c(=O)[nH]c1=O
OUTPUT: 40.1

INPUT: Provide one value: measured Biochem EGFR %Inhibition of CC(C)(C)c1cc(C=C2C(=O)Nc3ccc(S(=O)(=O)N4CCOCC4)cc32)ccc1OCc1ccccc1
OUTPUT: -8.0

INPUT: Provide one value: measured Biochem EGFR %Inhibition of Cc1c(O)ccc(C=C2C(=O)Nc3ccc(Br)c(C)c32)c1O
OUTPUT: 26.5

INPUT: Provide one value: measured Biochem EGFR %Inhibition of O=C1Nc2ccc(S(=O)(=O)N3CCOCC3)cc2C1=Cc1cc(Cl)cc(Br)c1O
OUTPUT: 17.9

INPUT: Provide one value: measured Biochem EGFR %Inhibition of CC(C)(C)c1cc(C=C2C(=O)Nc3c(Br)cc(Br)cc32)ccc1OCc1ccccc1
OUTPUT: -1.4

INPUT: Provide one value: measured Biochem EGFR %Inhibition of Cc1c(Br)ccc2c1C(=Cc1ccco1)C(=O)N2
OUTPUT: -18.7

INPUT: Provide one value: measured Biochem EGFR %Inhibition of O=C1Nc2ccc(S(=O)(=O)N3CCOCC3)cc2C1=Cc1cc(Cl)cc(Cl)c1O
OUTPUT: 24.8

----------
- Tgt: EGFR (Homo sapiens)
- Construct: Add 7 ug A431 cell lysate per well (EGFR source); endogenous in cells; host or cells: A431
- Protocol notes: EGFR ELISA assay (in vitro kinase activity, EGFR captured from A431 cell lysate)
- Format: biochemical
- Set-up: concentration or dose not given beside the values
Measured attribute: Biochem EGFR %Inhibition
# output: number + unit

Please review the following examples before continuing.
- CNS(=O)(=O)c1ccc2c(c1)C(=Cc1coc3ccc(Cl)cc3c1=O)C(=O)N2: 35.3%
- O=C1Nc2ccc(S(=O)(=O)Nc3ccc(C(F)(F)F)cc3)cc2C1=Cc1ccc(F)cc1Cl: -33.1%
- Cc1cc(C=C2C(=O)Nc3ccc(I)cc32)oc1C: 70.2%
- CNS(=O)(=O)c1ccc2c(c1)C(=Cc1ccc(O)c(C(C)(C)C)c1)C(=O)N2: 15.3%
- COc1c(Cl)cc(C=C2C(=O)Nc3c(Br)cc(Br)cc32)cc1C(C)(C)C: 39.7%
- COc1cc(Br)cc(C=C2C(=O)Nc3ccc(S(=O)(=O)N4CCOCC4)cc32)c1O: 17.2%
- Cc1ccsc1C=C1C(=O)Nc2ccc(CCCl)cc21: 4.4%
- N#Cc1cccc(C=C2C(=O)Nc3c(Br)cc(Br)cc32)c1: 9.7%

Now let's try a different one.
INPUT: Provide one value: measured Biochem EGFR %Inhibition of O=C1Nc2c(Br)cc(Br)cc2C1=Cc1cc2ccccc2o1
OUTPUT: 18.3%
